- method.description: LD50 / toxicity, mice with 7-days Ehrlich ascitic tumor
- Assay type: in vivo
- condition.summary: mouse, in vivo, ip, intraperitoneal, ten injections, female
quantity.measured: LD50
Phrase the answer as number then unit, nothing more needed.

What value of measured LD50 is listed for CCN(CC)CCCC(C)NC(=O)c1cc(C=Cc2ccc([N+](=O)[O-])o2)nc2ccccc12 (stereo not shown) ?
10 mg/kg

----------
- method.description: LD50 / toxicity, mice with 7-days Ehrlich ascitic tumor
- Assay type: in vivo
- condition.summary: mouse, in vivo, po, peroral, single administration, male
quantity.measured: LD50 (mg/kg)
Numbers only, in mg/kg.

What value of measured LD50 is listed for CCN(CC)CCCC(C)NC(=O)c1cc(C=Cc2ccc([N+](=O)[O-])o2)nc2ccccc12 (stereo not shown) ?
500

----------
- method.description: LD50 / toxicity, mice with 7-days Ehrlich ascitic tumor
- Type: in vivo
- condition.summary: mouse, in vivo, ip, intraperitoneal, ten injections, male
quantity.measured: LD50 (mg/kg)
Give bare numbers, in mg/kg.

What value of measured LD50 is listed for CCN(CC)CCCC(C)NC(=O)c1cc(C=Cc2ccc([N+](=O)[O-])o2)nc2ccccc12 (stereo not shown) [giniquine] ?
7

----------
- method.description: Biological availability, blood and liver of rats
- Type: in vivo
- condition.summary: rat, ip; intraperitoneal 100 mg/kg, blood; read-out: time of maximum level in blood (converted)
quantity.measured: Tmax (min)
Answers are plain numbers, in min.

What value of measured Tmax is listed for CCN(CC)CCCC(C)NC(=O)c1cc(C=Cc2ccc([N+](=O)[O-])o2)nc2ccccc12 (stereo not shown) ?
30

----------
- method.description: LD50, intact mice
- condition.summary: mouse, in vivo, ip, intraperitoneal, single injection, male
quantity.measured: LD50 (mg/kg)
Answers are plain numbers, in mg/kg.

What value of measured LD50 is listed for CCN(CC)CCCC(C)NC(=O)c1cc(C=Cc2ccc([N+](=O)[O-])o2)nc2ccccc12 (stereo not shown) [giniquine] ?
30

----------
- method.description: LD50 / toxicity, mice with 7-days Ehrlich ascitic tumor
- Format: in vivo
- condition.summary: mouse, in vivo, iv, single injection, male
quantity.measured: LD50 (mg/kg)
Numbers only, in mg/kg.

What value of measured LD50 is listed for CCN(CC)CCCC(C)NC(=O)c1cc(C=Cc2ccc([N+](=O)[O-])o2)nc2ccccc12 (stereo not shown) ?
20

----------
- method.description: Biological availability, blood and liver of rats
- Format: in vivo
- condition.summary: rat, ip; intraperitoneal 100 mg/kg, liver; read-out: time of maximum concentration in liver (converted)
quantity.measured: Tmax
Phrase the answer as number then unit, nothing more needed.

What value of measured Tmax is listed for CCN(CC)CCCC(C)NC(=O)c1cc(C=Cc2ccc([N+](=O)[O-])o2)nc2ccccc12 (stereo not shown) ?
20 min

----------
- method.description: LD50, intact mice
- condition.summary: mouse, in vivo, ip, intraperitoneal, single injection, female
quantity.measured: LD50 (mg/kg)
One number for each entry, in mg/kg.

What value of measured LD50 is listed for CCN(CC)CCCC(C)NC(=O)c1cc(C=Cc2ccc([N+](=O)[O-])o2)nc2ccccc12 (stereo not shown) ?
33

----------
- method.description: LD50, intact mice
- condition.summary: mouse, in vivo, ip, intraperitoneal, ten injections, female
quantity.measured: LD50 (mg/kg)
Answers are plain numbers, in mg/kg.

What value of measured LD50 is listed for CCN(CC)CCCC(C)NC(=O)c1cc(C=Cc2ccc([N+](=O)[O-])o2)nc2ccccc12 (stereo not shown) ?
8
